B1: glmS ribozyme (parent)
chain: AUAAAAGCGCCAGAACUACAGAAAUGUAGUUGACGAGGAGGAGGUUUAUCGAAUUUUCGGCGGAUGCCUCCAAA

# Variants of: B1
# ASSAY_PROTOCOL: self-cleavage kobs at 640 uM GlcN6P; higher = faster cleavage; RNA array
# ASSAY_CONTEXT: with glucosamine-6-phosphate
Fewer inactive variants are shown than the library holds.
In this section we review reported self-cleavage kobs at 640 uM GlcN6P values for a set of variants.
Number in s⁻¹, nothing else.

Example results:
BIOPOLYMER_SEQUENCE	self-cleavage kobs at 640 uM GlcN6P (s⁻¹)
AUAAAAGCGCCAGAACUACAGAAAUGUAGUUGACGAGGAGGAGGUUUAUCGAAUUUUGGGCGGAUGCCACCAAA [C58G U69A]	0.000406
AUAAAAGCGCUAGAACUACAGAAAUGUAGUUGACGAGGAGGAGGUGUAUCGAAUUUUCGGCGGAUGCCUCCAAA [C11U U46G]	5.11e-05

# input variant: AUAAAAGCGCCAGAACUACAGAAAUGUAGUUGACGAGGAGGAGGUGUAUUGAAUUUUCGGCGGAUGCGUCCAAA [U46G C50U C68G] ; wanted: its self-cleavage kobs at 640 uM GlcN6P
5.83e-05

# input variant: AUAAAAGCGCCAGAACUACAGAAAUGUAGUUGACGAGGUGAAGGUUUAUCGAAUUUUCGGCGGAUGCCUCCAAA [A39U G41A] ; wanted: its self-cleavage kobs at 640 uM GlcN6P
0.00014

What value of self-cleavage kobs at 640 uM GlcN6P has been recorded for this entry: AUAAAAGCGCCAGAACUACAGAAAUGUAGUUGACGAGGGGGAGGUUUAUCGGAUUUUCGGCGGAUGCCUCCAAA [A39G A52G]
0.000407

Param item = AUAAAAGCGCCAGGACUACAGAAAUGUAGUUGACGAGGAGGAGGUUUAUCGAAUUUUCGGCGGAUGCCACCAAA [A14G U69A] ; retrieve measured self-cleavage kobs at 640 uM GlcN6P.
0.000315

For AUAAAAGCGCCAGAACUACAGAAAUGUAGUCGACGAGGAGGAGGUUUAUCGAAUUUUCGGCGGACGCCUCCAAA [U31C U65C] , what is its reported self-cleavage kobs at 640 uM GlcN6P?
3.88e-05

Hey, just so you know, these numbers are from the supplement of paper PMC7125110.
